Assay: AUC(0 to 6 hrs) in Sprague-Dawley rat at 5 mg/kg, po
Assay type: ADME, organism-based
Parameters: time < 6 hr, dose 5 mg/kg, route oral
Settings: plasma
measurementName: AUC(0-t) at 6 h (ng·h/mL)

INSERT INTO results (chemicalstring, measurementname, measuredresult) VALUES
  ('Cc1cc(C(F)(F)F)ccc1NC(=O)N1CCC[C@@H]1C(=O)N(C)Cc1ccc(Cl)cc1', 'AUC(0-t) at 6 h', 2590),
  ('CN(Cc1ccc(Cl)cc1)C(=O)[C@H]1CCCN1C(=O)Nc1ccc(C(F)(F)F)cc1F', 'AUC(0-t) at 6 h', 1240),
  ('CN(Cc1ccc(Cl)cc1)C(=O)[C@H]1CCCN1C(=O)Nc1ccc(C(F)(F)F)cc1Cl', 'AUC(0-t) at 6 h', 2060);

* * *

Assay: Oral bioavailability in Sprague-Dawley rat at 5 mg/kg
Assay type: ADME, organism-based
Conditions: in vivo
measurementName: bioavailability (%)

INSERT INTO measurements (chemicalstring, measuredresult) VALUES
  ('CN(Cc1ccc(Cl)cc1)C(=O)[C@H]1CCCN1C(=O)Nc1ccc(C(F)(F)F)cc1', 45);

* * *

Assay: Cmax in Sprague-Dawley rat at 5 mg/kg, po
Type: ADME, organism-based
Design: dose 5 mg/kg, route oral
Settings: in vivo
Collected Cmax values appear next to each entry.
measurementName: Cmax (ng/mL)

INSERT INTO assay_data (chemicalstring, measurementname, unitannotation, measuredresult) VALUES
  ('Cc1cc(C(F)(F)F)ccc1NC(=O)N1CCC[C@@H]1C(=O)N(C)Cc1ccc(Cl)cc1', 'Cmax', 'ng/mL', 699),
  ('CN(Cc1ccc(Cl)cc1)C(=O)[C@H]1CCCN1C(=O)Nc1ccc(C(F)(F)F)cc1Cl', 'Cmax', 'ng/mL', 437),
  ('CN(Cc1ccc(Cl)cc1)C(=O)[C@H]1CCCN1C(=O)Nc1ccc(C(F)(F)F)cc1', 'Cmax', 'ng/mL', 834),
  ('CN(Cc1ccc(Cl)cc1)C(=O)[C@H]1CCCN1C(=O)Nc1ccc(C(F)(F)F)cc1F', 'Cmax', 'ng/mL', 291),
  ('Cc1cc(C(F)(F)F)cc(C)c1NC(=O)N1CCC[C@@H]1C(=O)N(C)Cc1ccc(Cl)cc1', 'Cmax', 'ng/mL', 195);

* * *

Assay: AUC(0 to infinity) in Sprague-Dawley rat at 5 mg/kg, po
Format: ADME, organism-based, Plasma
Design: time infinity, dose 5 mg/kg, route oral
Settings: Sprague-Dawley, plasma
measurementName: AUC(0-inf)

INSERT INTO measurements (chemicalstring, measuredresult) VALUES
  ('Cc1cc(C(F)(F)F)cc(C)c1NC(=O)N1CCC[C@@H]1C(=O)N(C)Cc1ccc(Cl)cc1', '611 ng·h/mL');

* * *

Assay: Half life in Sprague-Dawley rat at 5 mg/kg, po
Assay type: ADME, organism-based
Parameters: dose 5 mg/kg, route oral
Details: in vivo
measurementName: half-life

INSERT INTO assay_data (chemicalstring, measuredresult) VALUES
  ('CN(Cc1ccc(Cl)cc1)C(=O)[C@H]1CCCN1C(=O)Nc1ccc(C(F)(F)F)cc1', '4.4 h');

* * *

Assay: Metabolic stability in rat liver microsomes assessed as compound remaining at 1 uM after 30 mins by LC/MS
Type: ADME, Microsome
Conditions: read-out: Stability
Field: label. Allowed values: 1 (remaining at 0.5 h, 1 µM < 80%) or 0 (remaining at 0.5 h, 1 µM >= 80%).

INSERT INTO measurements (chemicalstring, class) VALUES
  ('CN(Cc1ccc(Cl)cc1)C(=O)[C@H]1CCCN1C(=O)Nc1ccc(C(F)(F)F)cc1Cl', 1),
  ('CN(Cc1ccc(Cl)cc1)C(=O)[C@H]1CCCN1C(=O)Nc1ccc(C(F)(F)F)cc1F', 1),
  ('CN(Cc1ccc(Cl)cc1)C(=O)[C@H]1CCCN1C(=O)Nc1ccc(C(F)(F)F)cc1', 1),
  ('Cc1cc(C(F)(F)F)cc(C)c1NC(=O)N1CCC[C@@H]1C(=O)N(C)Cc1ccc(Cl)cc1', 0);

* * *

Molecular target: C-C chemokine receptor type 1 (Homo sapiens)
Sequence (P32246 whole entry): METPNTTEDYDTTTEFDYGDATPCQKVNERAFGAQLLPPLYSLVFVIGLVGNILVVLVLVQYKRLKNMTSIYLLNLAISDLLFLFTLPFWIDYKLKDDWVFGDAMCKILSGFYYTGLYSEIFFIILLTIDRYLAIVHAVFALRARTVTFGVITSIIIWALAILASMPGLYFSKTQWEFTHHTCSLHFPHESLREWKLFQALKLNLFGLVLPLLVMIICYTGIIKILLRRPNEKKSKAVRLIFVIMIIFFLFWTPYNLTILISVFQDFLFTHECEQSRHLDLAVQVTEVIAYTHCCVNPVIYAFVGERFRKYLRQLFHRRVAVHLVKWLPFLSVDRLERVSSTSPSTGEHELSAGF
Experiment: Displacement of [125I]MIP-1-alpha from human recombinant CCR1 expressed in HEK293 cells
pIC50: −log10 of the molar value.
Measured pIC50 values are reported for all entries that follow.
measurementName: pIC50

INSERT INTO assay_data (compound, measuredresult) VALUES
  ('O=C([C@H]1CCCN1C(=O)Nc1ccc(Cl)cc1)N(CCO)Cc1cccc(Cl)c1', '< 4.00'),
  ('CN(Cc1ccc(Cl)cc1)C(=O)C1CCCCN1C(=O)Nc1ccc(C(F)(F)F)cc1 (centres undefined)', '< 4.55'),
  ('Cc1cc(Cl)ccc1CN(C)C(=O)[C@H]1CCCN1C(=O)Nc1ccc(Cl)cc1', '< 4.00'),
  ('O=C(NCc1ccc(Cl)cc1)[C@H]1CCCN1C(=O)Nc1ccc(Cl)cc1', '< 4.12');

* * *

Target: C-C chemokine receptor type 1 (Homo sapiens)
Assay: Displacement of [125I]MIP-1-alpha from human recombinant CCR1 expressed in HEK293 cells
Measured IC50 by item
measurementName: IC50

INSERT INTO assay_data (chemicalstring, measurementname, measuredresult) VALUES
  ('CN(Cc1ccc(C(F)(F)F)cc1)C(=O)[C@H]1CCCN1C(=O)Nc1ccc(Cl)cc1', 'IC50', '> 100 µM'),
  ('CN(Cc1ccc(C#N)cc1)C(=O)[C@H]1CCCN1C(=O)Nc1ccc(Cl)cc1', 'IC50', '> 13 µM'),
  ('CN(Cc1ccc(Cl)cc1)C(=O)[C@@H]1CCCN1C(=O)Nc1ccc(C(F)(F)F)cc1', 'IC50', '> 28 µM'),
  ('CN(Cc1ccc(Cl)cc1)C(=O)[C@H]1CCN1C(=O)Nc1ccc(C(F)(F)F)cc1', 'IC50', '> 100 µM'),
  ('COc1ccc(CN(C)C(=O)[C@H]2CCCN2C(=O)Nc2ccc(Cl)cc2)cc1', 'IC50', '> 77 µM');

Just for reference, ChEMBL document CHEMBL1140942 is where these values come from.
